Data origin, for the record: ChEMBL document CHEMBL1130189

assayed.system: Neutrophil elastase (Homo sapiens, UniProt P08246)
Sequence (P08246 whole entry): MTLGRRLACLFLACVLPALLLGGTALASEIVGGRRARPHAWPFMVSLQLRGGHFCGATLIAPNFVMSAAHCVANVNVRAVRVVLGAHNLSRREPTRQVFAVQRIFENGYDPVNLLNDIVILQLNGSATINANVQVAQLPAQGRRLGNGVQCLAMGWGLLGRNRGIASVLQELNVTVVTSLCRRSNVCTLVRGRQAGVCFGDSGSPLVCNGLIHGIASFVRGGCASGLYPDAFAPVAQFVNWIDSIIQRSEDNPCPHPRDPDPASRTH
measurement.description: Inhibitory activity against human leukocyte elastase
Assignment: determine reported Ki for the given compounds.
One number for each entry, in µM.

Past entries and their recorded results:
COc1ccc(OCC(=O)O)c(Cc2cc(O)c(Cc3cc(OCC(=O)O)c(Cc4cc(O)c(Cc5cc(OCC(=O)O)c(Cc6cc(O)c(C)cc6OC)cc5OC)cc4OC)cc3OC)cc2OC)c1    1.3
COc1ccc(OCC(=O)O)c(Cc2cc(OCC3CCCCC3)c(Cc3cc(OCC(=O)O)c(Cc4cc(OCC5CCCCC5)c(Cc5cc(OCC(=O)O)c(Cc6cc(OCC7CCCCC7)c(C)cc6OC)cc5OC)cc4OC)cc3OC)cc2OC)c1    0.02

Neutrophil elastase (Homo sapiens, UniProt P08246) assay, compound O=C(O)COc1cc(Cc2cc(OCc3ccccc3)c(Cc3cc(OCc4ccccc4)c(Cc4cc(O)ccc4OCC(=O)O)cc3OCC(=O)O)cc2OCC(=O)O)c(OCc2ccccc2)cc1CO , recorded Ki = 8.3
